target: HyMurG (Hydrogenivirga sp. 128-5-R1-1, UniProt A8US35); test: UV-Vis-based MurG assay; assay type: biochemical; settings: read-out: IC50 against HyMurG via UV-Vis spectrometry; dose-response curves
Sequence (A8US35 1-350): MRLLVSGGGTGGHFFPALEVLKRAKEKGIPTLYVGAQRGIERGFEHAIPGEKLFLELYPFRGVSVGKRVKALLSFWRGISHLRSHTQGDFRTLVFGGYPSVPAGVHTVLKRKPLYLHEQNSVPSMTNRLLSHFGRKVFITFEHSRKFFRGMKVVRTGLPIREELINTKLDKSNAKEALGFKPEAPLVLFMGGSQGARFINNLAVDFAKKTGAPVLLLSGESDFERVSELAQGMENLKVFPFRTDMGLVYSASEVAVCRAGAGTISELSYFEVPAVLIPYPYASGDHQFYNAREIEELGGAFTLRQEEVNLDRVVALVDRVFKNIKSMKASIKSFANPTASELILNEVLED
Measurement Kind: IC50 (µM)
One number for each entry, in µM.

query: Value lookup for IC50; key = C[C@@H]([C@H](N)C(=O)N[C@H](C(=O)O)[C@H]1O[C@@H](n2ccc(=O)[nH]c2=O)[C@H](O)[C@@H]1O)[C@H](O)c1ccc(O)cn1
result: 8.7

###

molecular target: MsmegMraY (Mycolicibacterium smegmatis); experiment: biochemical; type: biochemical, Mycobacterium smegmatis
Sequence (A0R019 whole entry): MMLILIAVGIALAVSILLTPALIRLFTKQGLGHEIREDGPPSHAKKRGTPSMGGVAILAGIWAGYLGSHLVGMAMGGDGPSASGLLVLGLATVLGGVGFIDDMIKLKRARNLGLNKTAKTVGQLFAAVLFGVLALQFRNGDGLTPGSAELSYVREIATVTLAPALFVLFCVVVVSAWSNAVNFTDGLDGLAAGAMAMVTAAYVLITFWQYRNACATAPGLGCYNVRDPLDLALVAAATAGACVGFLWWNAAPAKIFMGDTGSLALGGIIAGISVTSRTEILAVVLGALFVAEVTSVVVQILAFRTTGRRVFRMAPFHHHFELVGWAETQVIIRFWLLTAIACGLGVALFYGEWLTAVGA
Measurement Kind: IC50

A selection of reference data follows.
C[C@@H]([C@H](N)C(=O)N[C@H](C(=O)O)[C@H]1O[C@@H](n2ccc(=O)[nH]c2=O)[C@H](O)[C@@H]1O)[C@H](O)c1ccc(O)cn1 ... > 100 µM
C=C(C/C=C(\C)CCC=C(C)C)CCC(C)(C)/C=C/CC/C(C)=C\CO[C@H](COP(=O)(O)O[C@H]1O[C@H](C(N)=O)[C@@](C)(O)[C@H](OC(N)=O)[C@H]1O[C@@H]1O[C@H](CO[C@@H]2O[C@H](CO)[C@@H](O)[C@H](O)[C@H]2O)[C@@H](O[C@@H]2O[C@H](C)[C@@H](O[C@@H]3O[C@H](C(=O)NC4=C(O)CCC4=O)[C@H](O)[C@H](O)[C@H]3O)[C@H](O)[C@H]2NC(C)=O)[C@H](O)[C@H]1NC(C)=O)C(=O)O ... > 100 µM
CO[C@H]1[C@@H](O)[C@H](n2ccc(=O)[nH]c2=O)O[C@@H]1[C@@H](O[C@H]1OC(C(=O)N[C@H]2CCCCNC2=O)=C[C@H](O)[C@@H]1O)C(N)=O ... 0.13 µM

Now for a further molecule.
query: Value lookup for IC50; key = O=C(NC(=O)c1ccccc1Cl)Nc1ccc(OC(F)(F)F)cc1
result: > 100 µM

###

biological target: UniProt:A0R016; experiment: biochemical; parameters: species or system Mycobacterium smegmatis; details: read-out: (MsmegMurG) inhibition (%)
Please provide measured inhibition at 100 µM for the entries that follow.
Numbers only, in %.

A selection of reference data follows.
C[C@@H]([C@H](N)C(=O)N[C@H](C(=O)O)[C@H]1O[C@@H](n2ccc(=O)[nH]c2=O)[C@H](O)[C@@H]1O)[C@H](O)c1ccc(O)cn1 ... 93
CN[C@H](CC(C)C)C(=O)N[C@H]1C(=O)N[C@@H](CC(N)=O)C(=O)N[C@H]2C(=O)N[C@H]3C(=O)N[C@H](C(=O)N[C@H](C(=O)O)c4cc(O)cc(O)c4-c4cc3ccc4O)[C@H](O)c3ccc(c(Cl)c3)Oc3cc2cc(c3O[C@@H]2O[C@H](CO)[C@@H](O)[C@H](O)[C@H]2O[C@H]2C[C@](C)(N)[C@H](O)[C@H](C)O2)Oc2ccc(cc2Cl)[C@H]1O ... 58
C=C(C/C=C(\C)CCC=C(C)C)CCC(C)(C)/C=C/CC/C(C)=C\CO[C@H](COP(=O)(O)O[C@H]1O[C@H](C(N)=O)[C@@](C)(O)[C@H](OC(N)=O)[C@H]1O[C@@H]1O[C@H](CO[C@@H]2O[C@H](CO)[C@@H](O)[C@H](O)[C@H]2O)[C@@H](O[C@@H]2O[C@H](C)[C@@H](O[C@@H]3O[C@H](C(=O)NC4=C(O)CCC4=O)[C@H](O)[C@H](O)[C@H]3O)[C@H](O)[C@H]2NC(C)=O)[C@H](O)[C@H]1NC(C)=O)C(=O)O ... 15
CO[C@H]1[C@@H](O)[C@H](n2ccc(=O)[nH]c2=O)O[C@@H]1[C@@H](O[C@H]1OC(C(=O)N[C@H]2CCCCNC2=O)=C[C@H](O)[C@@H]1O)C(N)=O ... 0

Now for a further compound.
query: Form field: inhibition at 100 µM recorded for O=C(NC(=O)c1ccccc1Cl)Nc1ccc(OC(F)(F)F)cc1 with UniProt:A0R016 (enter value)
result: 0

###

Please provide measured inhibition at 100 µM for the entries that follow.
molecular target: HyMurG (Hydrogenivirga sp. 128-5-R1-1, UniProt A8US35); test: UV-Vis-based MurG assay; assay type: biochemical; details: read-out: HthermMurG inhibition (%)
Give bare numbers, in %.

O=C(NC(=O)c1ccccc1Cl)Nc1ccc(OC(F)(F)F)cc1 ... 0
CO[C@H]1[C@@H](O)[C@H](n2ccc(=O)[nH]c2=O)O[C@@H]1[C@@H](O[C@H]1OC(C(=O)N[C@H]2CCCCNC2=O)=C[C@H](O)[C@@H]1O)C(N)=O ... 0

Now for a further compound.
query: Value lookup for inhibition at 100 µM; key = C[C@@H]([C@H](N)C(=O)N[C@H](C(=O)O)[C@H]1O[C@@H](n2ccc(=O)[nH]c2=O)[C@H](O)[C@@H]1O)[C@H](O)c1ccc(O)cn1
result: 95

###

biological target: MsmegMurG (Mycolicibacterium smegmatis, UniProt A0R016); test: biochemical; set-up: species or system Mycobacterium smegmatis
Sequence (A0R016 whole entry): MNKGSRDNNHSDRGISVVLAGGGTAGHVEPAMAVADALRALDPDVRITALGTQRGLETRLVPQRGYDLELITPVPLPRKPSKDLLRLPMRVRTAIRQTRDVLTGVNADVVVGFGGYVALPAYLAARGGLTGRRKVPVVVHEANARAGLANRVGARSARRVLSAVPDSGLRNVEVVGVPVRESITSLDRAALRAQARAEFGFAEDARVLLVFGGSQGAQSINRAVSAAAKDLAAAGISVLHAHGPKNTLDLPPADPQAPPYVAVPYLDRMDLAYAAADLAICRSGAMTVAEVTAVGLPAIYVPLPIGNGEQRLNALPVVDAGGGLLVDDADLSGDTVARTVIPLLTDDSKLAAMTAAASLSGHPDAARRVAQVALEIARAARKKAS
Measurement Kind: IC50

query: Value lookup for IC50; key = C=C(C/C=C(\C)CCC=C(C)C)CCC(C)(C)/C=C/CC/C(C)=C\CO[C@H](COP(=O)(O)O[C@H]1O[C@H](C(N)=O)[C@@](C)(O)[C@H](OC(N)=O)[C@H]1O[C@@H]1O[C@H](CO[C@@H]2O[C@H](CO)[C@@H](O)[C@H](O)[C@H]2O)[C@@H](O[C@@H]2O[C@H](C)[C@@H](O[C@@H]3O[C@H](C(=O)NC4=C(O)CCC4=O)[C@H](O)[C@H](O)[C@H]3O)[C@H](O)[C@H]2NC(C)=O)[C@H](O)[C@H]1NC(C)=O)C(=O)O
result: > 100 µM

###

molecular target: UniProt A0R016; assay: biochemical; parameters: species or system Mycobacterium smegmatis; conditions: read-out: (MsmegMurG) inhibition (%)
Please provide measured inhibition at 10 µM for the entries that follow.
Answers are plain numbers, in %.

A selection of reference data follows.
CO[C@H]1[C@@H](O)[C@H](n2ccc(=O)[nH]c2=O)O[C@@H]1[C@@H](O[C@H]1OC(C(=O)N[C@H]2CCCCNC2=O)=C[C@H](O)[C@@H]1O)C(N)=O [Capuramycin, capuramycin] ... 0
C=C(C/C=C(\C)CCC=C(C)C)CCC(C)(C)/C=C/CC/C(C)=C\CO[C@H](COP(=O)(O)O[C@H]1O[C@H](C(N)=O)[C@@](C)(O)[C@H](OC(N)=O)[C@H]1O[C@@H]1O[C@H](CO[C@@H]2O[C@H](CO)[C@@H](O)[C@H](O)[C@H]2O)[C@@H](O[C@@H]2O[C@H](C)[C@@H](O[C@@H]3O[C@H](C(=O)NC4=C(O)CCC4=O)[C@H](O)[C@H](O)[C@H]3O)[C@H](O)[C@H]2NC(C)=O)[C@H](O)[C@H]1NC(C)=O)C(=O)O [Moenomycin A, moenomycin A] ... 0
O=C(NC(=O)c1ccccc1Cl)Nc1ccc(OC(F)(F)F)cc1 [Triflumuron, triflumuron] ... 0
CN[C@H](CC(C)C)C(=O)N[C@H]1C(=O)N[C@@H](CC(N)=O)C(=O)N[C@H]2C(=O)N[C@H]3C(=O)N[C@H](C(=O)N[C@H](C(=O)O)c4cc(O)cc(O)c4-c4cc3ccc4O)[C@H](O)c3ccc(c(Cl)c3)Oc3cc2cc(c3O[C@@H]2O[C@H](CO)[C@@H](O)[C@H](O)[C@H]2O[C@H]2C[C@](C)(N)[C@H](O)[C@H](C)O2)Oc2ccc(cc2Cl)[C@H]1O [Vancomycin, vancomycin] ... 60

query: Form field: inhibition at 10 µM recorded for C[C@@H]([C@H](N)C(=O)N[C@H](C(=O)O)[C@H]1O[C@@H](n2ccc(=O)[nH]c2=O)[C@H](O)[C@@H]1O)[C@H](O)c1ccc(O)cn1 [Nikkomycin Z, nikkomycin Z] with UniProt A0R016 (enter value)
result: 35

###

Please provide measured IC50 for the entries that follow.
test: in vitro; conditions: African green monkey

A selection of reference data follows.
CO[C@H]1/C=C/O[C@@]2(C)Oc3c(C)c(O)c4c(O)c(c(/C=N/N5CCN(C)CC5)c(O)c4c3C2=O)NC(=O)/C(C)=C\C=C\[C@H](C)[C@H](O)[C@@H](C)[C@@H](O)[C@@H](C)[C@H](OC(C)=O)[C@@H]1C [Rifampicin] ... > 100 µg/mL
CC[C@@H](CO)NCCN[C@@H](CC)CO [Ethambutol] ... > 100 µg/mL

query: Value lookup for IC50; key = C[C@@H]([C@H](N)C(=O)N[C@H](C(=O)O)[C@H]1O[C@@H](n2ccc(=O)[nH]c2=O)[C@H](O)[C@@H]1O)[C@H](O)c1ccc(O)cn1 [Nikkomycin Z, nikkomycin Z]
result: > 100 µg/mL
